- experimental.target: Estrogen receptor (Homo sapiens)
- experiment.summary: CCTE_Deisenroth_AIME_384WELL_LUC_Active: CCTE's 384-well Estrogen Receptor Transactivation Assay with AIME metabolic competence (ERTA luciferase; metabolism positive), Deisenroth Lab (AID 2284030)
Records with an inconclusive call do not appear. Active and inactive are the calls of the source. Rule for the calls: active = hit-call score of the fitted dose curve at least 0.9, where 1 is the maximum; inconclusive = response in the unintended direction; inactive = score below 0.9.
Please answer using one outcome listed in yes = active, no = inactive

compound	answer.label
O=C(O)c1ccccc1C(c1ccc(O)cc1)c1ccc(O)cc1	yes
ClC1=C(Cl)C(Cl)(Cl)C(Cl)=C1Cl	no
CCCCCCCCC(=O)O	no

Now consider a different compound.
INPUT: How did this test come out for CCCCCCC(=O)O ?
OUTPUT: no
